Target: Neuropeptide Y receptor type 1 (Homo sapiens)
Sequence (P25929 whole entry): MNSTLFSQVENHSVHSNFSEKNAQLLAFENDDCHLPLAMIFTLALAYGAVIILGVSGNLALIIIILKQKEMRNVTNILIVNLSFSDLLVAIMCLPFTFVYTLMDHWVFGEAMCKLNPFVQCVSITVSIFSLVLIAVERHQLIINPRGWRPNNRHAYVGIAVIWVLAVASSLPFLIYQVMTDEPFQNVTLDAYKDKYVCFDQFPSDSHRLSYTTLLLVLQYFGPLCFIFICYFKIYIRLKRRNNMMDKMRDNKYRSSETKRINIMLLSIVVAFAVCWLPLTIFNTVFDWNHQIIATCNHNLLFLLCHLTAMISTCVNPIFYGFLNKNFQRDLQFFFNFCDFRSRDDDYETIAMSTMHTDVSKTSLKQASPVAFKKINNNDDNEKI
Assay: Ability to displace [125I]pPYY from AV12 cell line stably transfected with cloned human neuropeptide Y receptor type 1.
Type: cell-based
REPORTED PROPERTY: pKi
Note: pKi values are expressed as the negative base-10 logarithm of concentration in M.

>  <MOL>
COCc1cc(Br)ccc1OCc1sc2ccccc2c1CCN1CCC(N(C)C)CC1

>  <READING>
7.96

$$$$
>  <MOL>
CN(C)C1CCN(CCc2c(CCOc3ccc(Cl)cc3Cl)sc3ccccc23)CC1

>  <READING>
5.55

$$$$
>  <MOL>
Clc1ccc(OCc2sc3ccccc3c2CCN2CCCCC2)cc1

>  <READING>
5.72

$$$$

State its pKi on Neuropeptide Y receptor type 1 (Homo sapiens): CN(C)C1CCN(CCc2c(COc3ccccc3)sc3ccccc23)CC1
5.90
